target: 5-hydroxytryptamine receptor 2A (Homo sapiens, UniProt P28223); format: functional, cell-based; also: assay procedure not described here
Sequence (P28223 whole entry): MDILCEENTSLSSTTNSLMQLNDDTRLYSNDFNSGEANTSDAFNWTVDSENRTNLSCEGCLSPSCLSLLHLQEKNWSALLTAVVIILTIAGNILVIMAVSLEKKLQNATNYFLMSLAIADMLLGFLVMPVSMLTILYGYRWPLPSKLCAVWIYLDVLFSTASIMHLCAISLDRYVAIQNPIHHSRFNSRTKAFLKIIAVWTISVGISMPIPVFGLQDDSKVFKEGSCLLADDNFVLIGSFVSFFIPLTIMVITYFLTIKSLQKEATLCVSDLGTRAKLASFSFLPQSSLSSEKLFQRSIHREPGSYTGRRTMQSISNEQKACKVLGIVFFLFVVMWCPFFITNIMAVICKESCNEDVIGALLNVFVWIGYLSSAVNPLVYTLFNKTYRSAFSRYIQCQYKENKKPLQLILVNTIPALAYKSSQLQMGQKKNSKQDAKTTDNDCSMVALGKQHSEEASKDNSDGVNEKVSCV
Exercise: for every item that follows, state its recorded AC50.

IN: For the record `CCCS(=O)(=O)Nc1ccc(F)c(C(=O)c2c[nH]c3ncc(-c4ccc(Cl)cc4)cc23)c1F` , what value of AC50 is listed for 5-hydroxytryptamine receptor 2A (Homo sapiens, UniProt P28223)?
OUT: > 30 µM

IN: Subsequent entry: `Cc1c(Cl)cccc1Nc1ccccc1C(=O)O`
OUT: 15 µM

IN: Subsequent entry: `O=C(Cn1ccnc1[N+](=O)[O-])NCc1ccccc1`
OUT: > 30 µM

IN: Subsequent entry: CC(C(=O)O)c1ccc(C(=O)c2cccs2)cc1 (stereo not given)
OUT: > 10 µM

IN: Subsequent entry: `Cc1ccc(C(=O)c2cc(O)c(O)c([N+](=O)[O-])c2)cc1`
OUT: > 10 µM

IN: Subsequent entry: `OCCN1CCN(CCCN2c3ccccc3C=Cc3ccccc32)CC1`
OUT: 28 µM

IN: Subsequent entry: CN(C)C(=O)OC1N=C(c2ccccc2)c2cc(Cl)ccc2N(C)C1=O (stereo not given)
OUT: > 30 µM

IN: Subsequent entry: `OCc1cc([C@@H](O)CNCCCCCCOCCOCc2c(Cl)cccc2Cl)ccc1O`
OUT: 23 µM

IN: Subsequent entry: `COC(=O)N[C@H](C(=O)N1CCC[C@H]1c1nc(-c2ccc(-c3ccc(-c4c[nH]c([C@@H]5CCCN5C(=O)[C@@H](NC(=O)OC)C(C)C)n4)cc3)cc2)c[nH]1)C(C)C`
OUT: > 30 µM

IN: Subsequent entry: `N[C@@H](CSCC(=O)O)C(=O)O`
OUT: > 30 µM

IN: Subsequent entry: `CC(C)(N)Cc1ccc(Cl)cc1`
OUT: > 30 µM

IN: Subsequent entry: O=C(OCCN1CCOCC1)c1cccnc1Nc1cccc(C(F)(F)F)c1 [MORNIFLUMATE]
OUT: 2.9 µM

IN: Subsequent entry: `CCCCOc1cc(C(=O)NCCN(CC)CC)c2ccccc2n1`
OUT: > 10 µM

IN: Subsequent entry: `CN1CC(=O)N2[C@H](c3ccc4c(c3)OCO4)c3[nH]c4ccccc4c3C[C@@H]2C1=O`
OUT: > 30 µM

IN: Subsequent entry: Nc1ncnc2c1ncn2[C@@H]1O[C@H](COP(=O)(O)O)[C@@H](O)[C@H]1O [ADENOSINE PHOSPHATE]
OUT: > 30 µM

IN: Subsequent entry: `C[C@@H]1O[C@@H]1P(=O)(O)O`
OUT: > 10 µM

IN: Subsequent entry: `CN(C)[C@@H]1C(O)=C(C(N)=O)C(=O)[C@@]2(O)C(O)=C3C(=O)c4c(O)ccc(Cl)c4[C@@H](O)[C@H]3C[C@@H]12`
OUT: > 10 µM

IN: Subsequent entry: O=C(C[S+]([O-])C(c1ccccc1)c1ccccc1)NO (stereo not given)
OUT: > 30 µM

IN: Subsequent entry: C1=Cc2cccc(OCC3CNCCO3)c2C1 (stereo not given)
OUT: 17 µM

IN: Subsequent entry: `NC(=O)c1ncn([C@@H]2O[C@H](CO)[C@@H](O)[C@H]2O)c1O`
OUT: > 30 µM

IN: Subsequent entry: C#CC1(OC(N)=O)CCCCC1 [ETHINAMATE]
OUT: > 10 µM

IN: Subsequent entry: `CC/C=C\C/C=C\C/C=C\CCCCCCCC(=O)O`
OUT: > 30 µM

IN: Subsequent entry: `CC(=O)N[C@H]1[C@H]([C@H](O)[C@H](O)CO)OC(C(=O)O)=C[C@@H]1N=C(N)N`
OUT: > 30 µM

IN: Subsequent entry: `COC(=O)[C@H]1[C@@H](OC(=O)c2ccccc2)C[C@@H]2CC[C@H]1N2C`
OUT: > 30 µM

IN: Subsequent entry: CCCCCCCCOc1ccccc1C(=O)Nc1ccc(C(=O)OCC[N+](C)(CC)CC)cc1 [OTILONIUM BROMIDE]
OUT: 3.9 µM

IN: Subsequent entry: `C=C1C[C@@H]2[C@H](CC[C@]3(C)C(=O)CC[C@@H]23)[C@@]2(C)C=CC(=O)C=C12`
OUT: > 30 µM

IN: Subsequent entry: `CO/N=C(\C(=O)N[C@@H]1C(=O)N2C(C(=O)[O-])=C(C[N+]3(C)CCCC3)CS[C@H]12)c1csc(N)n1`
OUT: > 30 µM

IN: Subsequent entry: O=C(Nc1ccccc1)OCC(CN1CCCCC1)OC(=O)Nc1ccccc1 (stereo not given)
OUT: > 30 µM

IN: Subsequent entry: CCC(C(=O)O)c1ccc(CC(C)C)cc1 (stereo not given)
OUT: > 30 µM

IN: Subsequent entry: `N/N=c1/cc2c(n[nH]1)CCN(C(=O)c1ccccc1)C2`
OUT: > 30 µM

----------
Exercise: for every item that follows, state its recorded AC50.
biological target: Voltage-dependent L-type calcium channel subunit alpha-1C (Rattus norvegicus, UniProt P22002); assay type: functional; also: assay procedure not described here
Sequence (P22002 whole entry): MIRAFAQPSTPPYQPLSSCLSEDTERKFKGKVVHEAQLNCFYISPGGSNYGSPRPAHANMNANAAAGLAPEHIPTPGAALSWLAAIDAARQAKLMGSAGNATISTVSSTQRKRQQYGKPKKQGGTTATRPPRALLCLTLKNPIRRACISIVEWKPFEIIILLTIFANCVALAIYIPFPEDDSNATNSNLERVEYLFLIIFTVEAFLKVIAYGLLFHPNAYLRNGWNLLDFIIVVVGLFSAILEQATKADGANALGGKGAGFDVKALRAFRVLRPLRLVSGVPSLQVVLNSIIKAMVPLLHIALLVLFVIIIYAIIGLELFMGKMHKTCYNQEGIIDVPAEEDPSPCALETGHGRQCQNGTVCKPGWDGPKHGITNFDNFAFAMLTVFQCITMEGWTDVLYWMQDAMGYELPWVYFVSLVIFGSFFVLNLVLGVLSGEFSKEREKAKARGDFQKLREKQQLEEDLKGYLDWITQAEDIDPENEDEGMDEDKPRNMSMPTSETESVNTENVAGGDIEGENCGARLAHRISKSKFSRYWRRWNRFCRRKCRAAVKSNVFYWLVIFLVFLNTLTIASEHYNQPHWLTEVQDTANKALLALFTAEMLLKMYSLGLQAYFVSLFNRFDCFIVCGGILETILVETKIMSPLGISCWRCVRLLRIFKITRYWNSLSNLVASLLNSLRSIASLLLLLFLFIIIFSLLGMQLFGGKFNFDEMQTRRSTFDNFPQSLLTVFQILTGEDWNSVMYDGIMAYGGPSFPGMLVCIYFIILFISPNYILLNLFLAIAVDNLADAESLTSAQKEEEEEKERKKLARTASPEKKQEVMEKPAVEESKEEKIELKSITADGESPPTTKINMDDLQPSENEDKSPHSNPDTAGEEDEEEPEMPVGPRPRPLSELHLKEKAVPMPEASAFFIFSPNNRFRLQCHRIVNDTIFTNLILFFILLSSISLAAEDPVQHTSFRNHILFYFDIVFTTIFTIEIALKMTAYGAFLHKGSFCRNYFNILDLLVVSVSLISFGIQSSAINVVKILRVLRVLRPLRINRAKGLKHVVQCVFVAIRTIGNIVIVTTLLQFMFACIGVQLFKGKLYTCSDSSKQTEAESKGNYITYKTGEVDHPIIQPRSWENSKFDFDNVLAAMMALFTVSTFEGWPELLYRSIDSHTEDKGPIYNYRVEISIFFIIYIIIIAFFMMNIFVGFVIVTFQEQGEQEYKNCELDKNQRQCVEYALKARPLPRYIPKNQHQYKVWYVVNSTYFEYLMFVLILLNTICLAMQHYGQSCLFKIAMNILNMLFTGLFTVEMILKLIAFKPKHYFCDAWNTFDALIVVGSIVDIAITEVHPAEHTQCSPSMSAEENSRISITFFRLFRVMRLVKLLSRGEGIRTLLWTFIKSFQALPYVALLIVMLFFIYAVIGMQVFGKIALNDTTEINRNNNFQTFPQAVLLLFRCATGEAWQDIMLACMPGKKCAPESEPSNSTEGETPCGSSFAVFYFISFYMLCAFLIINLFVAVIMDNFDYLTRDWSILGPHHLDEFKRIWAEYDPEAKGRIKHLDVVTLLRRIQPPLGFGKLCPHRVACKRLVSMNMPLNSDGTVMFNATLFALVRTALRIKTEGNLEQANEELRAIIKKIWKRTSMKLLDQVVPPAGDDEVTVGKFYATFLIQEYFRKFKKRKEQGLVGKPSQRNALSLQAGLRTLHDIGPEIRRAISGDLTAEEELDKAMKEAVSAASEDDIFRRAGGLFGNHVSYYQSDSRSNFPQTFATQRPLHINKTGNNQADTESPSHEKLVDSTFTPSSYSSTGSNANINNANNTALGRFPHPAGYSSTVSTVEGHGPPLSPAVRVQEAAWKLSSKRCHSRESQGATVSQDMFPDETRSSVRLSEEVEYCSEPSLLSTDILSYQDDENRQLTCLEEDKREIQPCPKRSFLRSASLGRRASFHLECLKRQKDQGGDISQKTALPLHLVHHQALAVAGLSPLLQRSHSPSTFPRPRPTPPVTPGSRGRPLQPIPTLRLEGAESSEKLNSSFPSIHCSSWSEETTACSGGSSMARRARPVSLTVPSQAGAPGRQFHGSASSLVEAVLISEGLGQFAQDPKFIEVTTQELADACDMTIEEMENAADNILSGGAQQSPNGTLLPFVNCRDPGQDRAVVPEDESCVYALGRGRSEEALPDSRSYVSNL

IN: Return reported AC50; argument: C[C@]12CCC(=O)C=C1CC[C@@H]1[C@@H]2CC[C@@]2(C)[C@H]1CC[C@]2(C)O [METHYLTESTOSTERONE]
OUT: > 30 µM

IN: Subsequent entry: CC(C)C(=O)OCC(=O)[C@@]12O[C@H](C3CCCCC3)O[C@@H]1C[C@H]1[C@@H]3CCC4=CC(=O)C=C[C@]4(C)[C@H]3[C@@H](O)C[C@@]12C [CICLESONIDE]
OUT: > 10 µM

IN: Subsequent entry: NC[C@H]1O[C@H](O[C@H]2[C@H](O)[C@@H](O[C@H]3O[C@H](CO)[C@@H](O)[C@H](N)[C@H]3O)[C@H](N)C[C@@H]2N)[C@H](O)[C@@H](O)[C@@H]1O [KANAMYCIN]
OUT: > 10 µM

IN: Subsequent entry: CCC[C@@H]1C[C@@H](C(=O)N[C@@H]([C@H]2O[C@H](SC)[C@H](O)[C@@H](O)[C@H]2O)[C@H](C)Cl)N(C)C1 [CLINDAMYCIN]
OUT: > 10 µM

IN: Subsequent entry: CCc1ccc(CCOc2ccc(CC3SC(=O)NC3=O)cc2)nc1 (stereo unspecified) [PIOGLITAZONE]
OUT: > 10 µM

IN: Subsequent entry: C1COC(NC(C2CC2)C2CC2)=N1 [RILMENIDINE]
OUT: > 10 µM

----------
target: UniProt Q08499; type: functional
Sequence (Q08499 whole entry): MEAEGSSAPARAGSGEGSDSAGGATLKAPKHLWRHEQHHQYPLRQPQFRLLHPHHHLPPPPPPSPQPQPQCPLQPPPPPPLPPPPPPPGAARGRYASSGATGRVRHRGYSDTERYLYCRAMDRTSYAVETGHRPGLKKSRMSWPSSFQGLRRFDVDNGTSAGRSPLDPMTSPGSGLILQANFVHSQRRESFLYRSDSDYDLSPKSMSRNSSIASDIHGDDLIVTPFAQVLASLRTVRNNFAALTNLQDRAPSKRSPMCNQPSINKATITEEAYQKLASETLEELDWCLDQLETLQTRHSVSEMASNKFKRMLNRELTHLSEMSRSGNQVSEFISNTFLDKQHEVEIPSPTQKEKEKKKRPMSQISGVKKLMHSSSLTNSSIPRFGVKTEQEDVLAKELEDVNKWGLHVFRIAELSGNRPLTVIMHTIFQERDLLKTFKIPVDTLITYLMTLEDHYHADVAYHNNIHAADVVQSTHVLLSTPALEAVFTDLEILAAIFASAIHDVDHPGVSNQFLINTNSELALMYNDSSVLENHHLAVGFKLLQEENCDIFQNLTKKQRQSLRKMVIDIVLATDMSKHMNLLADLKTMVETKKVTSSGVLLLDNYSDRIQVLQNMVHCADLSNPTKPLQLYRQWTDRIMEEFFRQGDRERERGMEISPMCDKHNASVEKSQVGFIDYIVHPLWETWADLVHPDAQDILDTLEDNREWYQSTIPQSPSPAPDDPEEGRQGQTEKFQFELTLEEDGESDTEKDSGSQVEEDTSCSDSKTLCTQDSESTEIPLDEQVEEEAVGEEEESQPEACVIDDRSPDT
ASSAY READOUT: AC50

IN: For the record NC(CO)C(=O)NNCc1ccc(O)c(O)c1O (stereo not drawn) [BENSERAZIDE] , what value of AC50 is listed for UniProt Q08499?
OUT: > 30 µM

IN: Subsequent entry: `CN(C)CCCN1c2ccccc2Sc2ccccc21`
OUT: > 10 µM

IN: Subsequent entry: `C#CCN[C@@H]1CCc2ccccc21`
OUT: > 30 µM

IN: Subsequent entry: CC(Cc1ccccc1)NCCC(c1ccccc1)c1ccccc1 (stereo not drawn)
OUT: > 30 µM

IN: Subsequent entry: `O=C1NCCN1CCN1CCC(c2cn(-c3ccc(F)cc3)c3ccc(Cl)cc23)CC1`
OUT: 20 µM

IN: Subsequent entry: C#CC1(OC(N)=O)CCCCC1 [ETHINAMATE]
OUT: > 30 µM

IN: Subsequent entry: CN(CCOc1ccc(NS(C)(=O)=O)cc1)CCc1ccc(NS(C)(=O)=O)cc1 [DOFETILIDE]
OUT: > 30 µM

IN: Subsequent entry: `CN[C@@H]1[C@H](O)[C@H](NC)[C@H]2O[C@@]3(O)C(=O)C[C@@H](C)O[C@H]3O[C@@H]2[C@H]1O`
OUT: > 30 µM

----------
target: Prostaglandin G/H synthase 1 (Homo sapiens); format: functional; also: assay procedure not described here
Sequence (P23219 whole entry): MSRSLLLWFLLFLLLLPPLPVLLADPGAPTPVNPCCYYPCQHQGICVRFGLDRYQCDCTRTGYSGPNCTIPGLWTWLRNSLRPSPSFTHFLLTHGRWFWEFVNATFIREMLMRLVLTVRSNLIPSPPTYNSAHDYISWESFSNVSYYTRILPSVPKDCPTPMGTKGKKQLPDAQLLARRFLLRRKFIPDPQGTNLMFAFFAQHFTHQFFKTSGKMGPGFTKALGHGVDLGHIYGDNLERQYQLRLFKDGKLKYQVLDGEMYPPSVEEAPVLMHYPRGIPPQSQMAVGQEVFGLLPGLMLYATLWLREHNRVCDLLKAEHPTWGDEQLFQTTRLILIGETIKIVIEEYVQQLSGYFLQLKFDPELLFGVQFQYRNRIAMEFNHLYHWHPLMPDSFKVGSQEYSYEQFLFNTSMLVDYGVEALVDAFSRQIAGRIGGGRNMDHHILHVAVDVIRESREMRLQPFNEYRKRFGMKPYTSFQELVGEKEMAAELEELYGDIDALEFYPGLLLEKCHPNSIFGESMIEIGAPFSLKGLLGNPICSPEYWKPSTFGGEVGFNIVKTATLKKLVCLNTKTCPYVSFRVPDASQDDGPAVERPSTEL
ASSAY READOUT: AC50

IN: Return reported AC50; argument: Cc1c(-c2ccccc2)oc2c(C(=O)OCCN3CCCCC3)cccc2c1=O [FLAVOXATE]
OUT: > 30 µM

IN: Subsequent entry: `Cc1c(O)cccc1C(=O)N[C@@H](CSc1ccccc1)[C@H](O)CN1C[C@H]2CCCC[C@H]2C[C@H]1C(=O)NC(C)(C)C`
OUT: > 30 µM

IN: Subsequent entry: `O=C1c2ccccc2C(=O)C1C(=O)C(c1ccccc1)c1ccccc1`
OUT: 20.4 µM

IN: Subsequent entry: `CCOC(=O)N[C@@H]1CC[C@@H]2[C@@H](C1)C[C@H]1C(=O)O[C@H](C)[C@H]1[C@H]2/C=C/c1ccc(-c2cccc(F)c2)cn1`
OUT: > 30 µM

IN: Subsequent entry: `CS(=O)(=O)c1ccc([C@@H](O)[C@@H](CO)NC(=O)C(Cl)Cl)cc1`
OUT: > 30 µM

IN: Subsequent entry: CC(=O)OC[C@H]1O[C@@H](n2ccc(=O)[nH]c2=O)[C@H](OC(C)=O)[C@@H]1OC(C)=O [URIDINE TRIACETATE]
OUT: > 30 µM
